Recorded values, source the C3SDB collision cross section collection.

experimental setup: [M-H]-; instrument: TW; calibrated with phosphatidylcholines (ESI+) and phosphatidylethanolamines (ESI-), doubly charged cardiolipins calibrated with poly-DL-…
Output T for records whose collision cross section (N2) is lower than 300 Å², F for records at or above 300 Å².

{"columns": ["compound", "group"],
 "data": [
  ["CCCCCCCC/C=C/CCCCCCCC(=O)OC[C@@H](O)COP(=O)([O-])OCC[NH3+] [LPE(18:1/0:0)]", "T"],
  ["CCCCCCCCCCCCCC(=O)OC[C@@H](O)COP(=O)([O-])OCC[NH3+] [LPE(14:0/0:0)]", "T"],
  ["CCCCC1CC1CCCCCCCC(=O)OC[C@@H](O)COP(=O)([O-])OCC[NH3+] (stereo partly drawn) [LPE(15:1/0:0)]", "T"],
  ["CCCCCCCC/C=C\\CCCCCCCC(=O)OC(COC(=O)CCCCCCCCCCCCCCC)COP(=O)(O)OCCN (stereo not drawn) [PE(34:1)]", "T"],
  ["CCCCCCCCCCCCCCCC(=O)NCCOP(=O)(O)OC[C@@H](COC(=O)CCCCCCCCCCCCCCC)OC(=O)CCCCCCCC1CC1CCCCCC (stereo partly drawn) [AcylPE(49:1)]", "F"],
  ["CCCCCCCCCCCCCCCC(=O)OCC(COP(=O)(O)OCCN)OC(=O)CCCCCCCC1CC1CCCCCCCC (stereo not drawn) [PE(35:1)]", "T"],
  ["CCCCCCCCCCCCCCC(=O)OC[C@@H](O)COP(=O)(O)OCC(O)CO (stereo partly drawn) [LPG(15:0)]", "T"],
  ["CCCCCC/C=C\\CCCCCCCC(=O)OCC(COP(=O)(O)OCCN)OC(=O)CCCCCCCCCCCCCCC (stereo not drawn) [PE(32:1)]", "T"]
]}

Bench note: check whether CCCCCCCC/C=C/CCCCCCCC(=O)O[C@H](CO)COP(=O)([O-])OCC[NH3+] [LPE(0:0/18:1)] shows collision cross section (N2) below 300 Å² T

Bench note: check whether CCCCCC/C=C\CCCCCCCC(=O)OC[C@H](COP(=O)(O)OCCNC(=O)CCCCCCCCCCCCCCC)OC(=O)CCCCCCCCCCCCCCC [AcylPE(48:1)] shows collision cross section (N2) below 300 Å² F

Bench note: check whether CCCCCCCCCCCCCCCC(=O)O[C@H](CO)COP(=O)(O)OCC(O)CO (stereo partly drawn) [LPG(16:0)] shows collision cross section (N2) below 300 Å² T

Bench note: check whether CCCCCC/C=C\CCCCCCCC(=O)OC[C@H](COP(=O)(O)OC[C@@H](O)COC(=O)CCCCCCCCCCCCCCC)OC(=O)CCCCCCCCCCCCCCC [AcylPG(48:1)] shows collision cross section (N2) below 300 Å² F

Bench note: check whether CCCCCCCCCCCCCCCC(=O)OCC(COP(=O)(O)O)OC(=O)CCCCCCCC1CC1CCCC (stereo not drawn) [PA(31:1)] shows collision cross section (N2) below 300 Å² T

----------
experimental setup: [M+H]+; instrument: TW; Major Mix IMS/Tof Calibration Kit (Waters)
readout kind: collision cross section (N2) (Å²)
One number for each entry, in Å².

For orientation, consider the following solved cases.
{"columns": ["compound", "collision cross section (N2), Å²"],
 "data": [
  ["C[C@]12CCC(=O)C=C1CC[C@@H]1[C@@H]2CC[C@@]2(C)[C@H]1CC[C@]2(C)O", 176],
  ["CN1CC[C@]23c4c5ccc(O)c4O[C@H]2[C@@H](O)CC[C@H]3[C@H]1C5 [Dihydromorphine]", 163.6],
  ["CC(C)NCC(O)COc1cccc2ccccc12 (centres undefined)", 162.7]
]}

Consider now this further compound.
Tell us which collision cross section (N2) value is on record for "CCOC(=O)[C@H](CCc1ccccc1)N[C@@H](C)C(=O)N1[C@H](C(=O)O)C[C@H]2CCCC[C@@H]21" 203.5
